# Experimental system: human PTH receptor (Homo sapiens, UniProt Q03431)
# Sequence (Q03431 27-593): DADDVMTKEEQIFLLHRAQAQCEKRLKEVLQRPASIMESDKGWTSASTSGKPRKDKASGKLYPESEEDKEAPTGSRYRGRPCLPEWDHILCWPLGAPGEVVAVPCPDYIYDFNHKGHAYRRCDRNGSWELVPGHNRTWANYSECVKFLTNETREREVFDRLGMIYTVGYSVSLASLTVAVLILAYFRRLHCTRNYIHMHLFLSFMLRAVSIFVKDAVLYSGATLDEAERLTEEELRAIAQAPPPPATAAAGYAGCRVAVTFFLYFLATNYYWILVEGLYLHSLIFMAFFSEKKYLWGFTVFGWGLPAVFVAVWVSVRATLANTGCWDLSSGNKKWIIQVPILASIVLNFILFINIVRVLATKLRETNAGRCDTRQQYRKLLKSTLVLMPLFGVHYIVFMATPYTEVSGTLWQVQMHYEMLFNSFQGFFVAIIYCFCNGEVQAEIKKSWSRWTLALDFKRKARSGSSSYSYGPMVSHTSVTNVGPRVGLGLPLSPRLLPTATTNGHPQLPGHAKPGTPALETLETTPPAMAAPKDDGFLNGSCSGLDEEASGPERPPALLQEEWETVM
# Assay notes: CRE-luciferase induction in clone KZ10-20-48/PTH-20
# Description: Test substances that appear to specifically elevate luciferase expression in CT-R positive cells but not CT-R negative cells were subjected to an additional specificity check, i.e. their inability to activate other members of the G-protein coupled receptor family. The parathyroid hormone (PTH) receptor is another member of the G-protein coupled receptor family that transduces signal through adenylate cyclase mediated elevation of cAMP.
Metric: EC50 (µM)

# Compound, Endpoint result
data = [
    ("C=C[C@@]1(C)CC(=O)[C@]2(O)[C@@]3(C)[C@@H](O)CCC(C)(C)[C@@H]3[C@H](O)[C@H](OC(C)=O)[C@@]2(C)O1 [forskolin]", 2),
]

// provenance: patent US6391917B1
